# Test system: Fibroblast
# measurementDescription: Multiplex assay against human fibroblast
# Type: toxicity, cell-based
# runParameters: 12 h, 1 µM, compound concentration 1 uM, replicate 1
With a cut-off of 40%, any Population Mitotic Cells (%) strictly below it is called class 1; any Population Mitotic Cells (%) meeting it or above is called class 0.

{"molecule": "CC(C)NCC(O)COc1ccc(CCOCC2CC2)cc1.Cl (stereo not given) [BETAXOLOL HYDROCHLORIDE]", "experimentalSystem": "Fibroblast", "labelClass": "class 0"}
{"molecule": "C[C@@]1(C(=O)Nc2ccc(F)nc2)CCCN1c1nc(Nc2cc(C3CC3)n[nH]2)c2cccn2n1", "experimentalSystem": "Fibroblast", "labelClass": "class 1"}
{"molecule": "CNc1nc(NCc2ccc(NS(C)(=O)=O)cc2Cl)cc(-c2ccccn2)n1", "experimentalSystem": "Fibroblast", "labelClass": "class 1"}
{"molecule": "Cc1csc2c(N[C@@H](C)CN3CCN(S(=O)(=O)c4ccc(Cl)c(Cl)c4)CC3)ncnc12", "experimentalSystem": "Fibroblast", "labelClass": "class 0"}
{"molecule": "C=CC(=O)Nc1cc2c(Nc3ccc(F)c(Cl)c3)ncnc2cc1OCCCN1CCOCC1.Cl.Cl [CANERTINIB DIHYDROCHLORIDE]", "experimentalSystem": "Fibroblast", "labelClass": "class 1"}
{"molecule": "COc1ncc(-c2ccc3nccc(-c4ccnnc4)c3c2)cc1NS(=O)(=O)c1ccc(F)cc1F", "experimentalSystem": "Fibroblast", "labelClass": "class 0"}
{"molecule": "Cn1cc(-c2[nH]c3cc(NC(=O)[C@H](N)C4CCCCC4)cc4c3c2C=NNC4=O)cn1", "experimentalSystem": "Fibroblast", "labelClass": "class 1"}
{"molecule": "Cc1nc(Nc2n[nH]c3c2CN(C(=O)N[C@H](CN(C)C)c2ccccc2)C3(C)C)c2sccc2n1", "experimentalSystem": "Fibroblast", "labelClass": "class 1"}
{"molecule": "CN1CCN(c2ccc(OC(F)(F)F)c(Nc3ncc4c(n3)-c3c(c(C(N)=O)nn3CCO)CC4)c2)CC1", "experimentalSystem": "Fibroblast", "labelClass": "class 1"}
{"molecule": "Cc1c(-c2ccc(O)cc2)n(Cc2ccc(OCCN3CCCCCC3)cc2)c2ccc(O)cc12", "experimentalSystem": "Fibroblast", "labelClass": "class 1"}
{"molecule": "Cc1nc(-c2ccc(-c3ccc(C(=O)N4CCc5cc6c(cc54)C4(CCN(C)CC4)CO6)cc3)c(C)c2)no1", "experimentalSystem": "Fibroblast", "labelClass": "class 1"}

All values here come from ChEMBL document CHEMBL4689842.
